- TESTED_SYSTEM: UniProtKB Q8RDT4
- Sequence (Q8RDT4 whole entry): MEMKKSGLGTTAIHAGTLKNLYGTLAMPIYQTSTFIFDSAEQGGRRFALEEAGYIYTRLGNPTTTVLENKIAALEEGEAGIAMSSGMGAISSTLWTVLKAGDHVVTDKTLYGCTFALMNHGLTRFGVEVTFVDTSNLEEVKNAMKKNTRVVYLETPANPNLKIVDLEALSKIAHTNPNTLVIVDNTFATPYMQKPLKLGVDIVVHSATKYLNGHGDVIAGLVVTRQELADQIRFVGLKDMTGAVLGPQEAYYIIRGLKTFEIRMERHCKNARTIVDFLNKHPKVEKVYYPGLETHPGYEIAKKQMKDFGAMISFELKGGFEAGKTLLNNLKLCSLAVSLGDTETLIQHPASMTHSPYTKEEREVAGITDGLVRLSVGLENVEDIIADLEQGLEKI
- TEST_METHOD_NOTES: Inhibition of Fusobacterium nucleatum ATCC 25586 recombinant wild type MGL expressed in Escherichia coli BL21 (DE3) assessed as decrease in signal intensity by 19F NMR based competition assay relative to control
- Set-up: concentration or dose not given beside the values
For each of the compounds below, state its Activity.
Value expressed in %; do not type the unit.

Query string: I'd like to know its Activity. The compound in question is `CC(C)(CC(=O)O)c1ccc(C(F)(F)F)cc1`
Result string: 62

Query string: Query (compound): `CC(C)(C)OC(=O)N[C@H]1CC[C@H](N2Cc3ccc(F)cc3C2=O)CC1` ; field requested: Activity
Result string: 70

Query string: Which Activity is listed for `O=C(O)c1cc(OC(F)(F)F)ccn1` ?
Result string: 4

Query string: So what's the measured Activity for this one? `CC(C)(C)OC(=O)N1CCC(CN)(Cc2ccccc2C(F)(F)F)CC1`
Result string: 85

Query string: GET /values?readout=Activity&item= `O=C(O)c1ccc(OCC(F)(F)F)cn1`
Result string: 40

Query string: Data request, read-out Activity, for `O=C(O)c1cc(C(F)(F)F)nn1-c1ccccc1`
Result string: 49

Query string: GET /values?readout=Activity&item= `CC(C)(C)OC(=O)N1CCC(CN)(c2cccc(F)c2)CC1`
Result string: 65

Query string: // query Activity value for entry `O=C(O)c1cn(-c2ccc(F)cc2)cn1`
Result string: 58

Query string: Item under review: `CC(C)(C)OC(=O)N1CCC(CN)(c2ccccc2F)CC1` . Reported Activity?
Result string: 77

Query string: Can you look up the measured Activity of `CCOC(=O)c1nc(-c2ccc(F)cc2)no1` for me?
Result string: 84

Query string: Activity for `O=C(O)c1cc(C(F)(F)F)nn1Cc1ccccc1` ?
Result string: 41

Query string: Any idea what its Activity is? The compound is `CC(C)(C)OC(=O)N1CCC(C(=O)O)(c2ccc(C(F)(F)F)cc2)CC1`
Result string: 96

Query string: What measured Activity goes with `Fc1cccc(-c2nnc3ccc(Br)cn23)c1` ?
Result string: 89

Query string: Sample `O=C(O)c1cnn(-c2ccc(F)cc2)c1` — what was its Activity?
Result string: 69

Query string: Bench note: what Activity did `O=C(O)c1ccc(OC(F)F)nc1` show?
Result string: 78

Query string: Which Activity value is on record for `O=C(O)c1cn(-c2ccc(C(F)(F)F)cc2)cn1` ?
Result string: 87

Query string: What does the record list as Activity for `COCCOc1ccc(C(=O)O)cc1C(F)(F)F` ?
Result string: 67

Query string: Name the reported Activity value associated with the compound `O=C(O)c1cncc(OCC(F)(F)F)c1`
Result string: 35

Query string: If you can, please state the reported Activity value of `CC(C)(C)OC(=O)N1CCC(CN)(Cc2ccc(F)cc2)CC1` .
Result string: 70

Query string: Value lookup for Activity; key = `CC(C)(C)OC(=O)N[C@H]1CC[C@H](N2Cc3cccc(F)c3C2=O)CC1`
Result string: 100

Query string: Recorded Activity for Cc1cccc2c(C(C(=O)O)C(F)(F)F)c[nH]c12 (configuration not stated) , please?
Result string: 44

Query string: I have this compound here, `O=C(O)c1ccnc(OC(F)(F)F)c1` , and I need its recorded Activity.
Result string: 76

Query string: Which measured Activity value corresponds to `O=C(O)c1cn(-c2ccccc2F)cn1` ?
Result string: 26

Query string: Please give the measured Activity for this compound: `CCOC(=O)c1nc(-c2ccccc2F)no1`
Result string: 82

Query string: Suppose we examine the compound `CC(C)(C)OC(=O)N1CCC(CN)(Cc2ccccc2F)CC1` ; what Activity value has been reported?
Result string: 63

Query string: Quick check: Activity of `CC(C)(C)OC(=O)N1CCC(CN)(c2ccc(F)cc2)CC1` ?
Result string: 20

Query string: GET /values?readout=Activity&item= `Nc1cc(F)c(OCC2CCC2)c(F)c1`
Result string: 55

Query string: Look up Activity: `CC(C)(C)OC(=O)N1CCC(CN)(Cc2ccc(C(F)(F)F)cc2)CC1`
Result string: 78

Query string: Fill in: Activity of `O=C(O)c1cn(-c2cccc(F)c2)cn1` is ___
Result string: 36

Query string: What value of Activity has been recorded for this entry: `O=C(O)c1ccnc(OC(F)F)c1`
Result string: 67

Query string: Look at this compound and give its reported Activity. `O=C(O)c1cc(F)c(OCC2CC2)c(F)c1`
Result string: 77

Query string: Report Activity for `CC(C)(C)OC(=O)N1CCC(CN)(c2ccccc2C(F)(F)F)CC1` please.
Result string: 75

Query string: Param item = `CC(C)(Cc1cccc(C(F)(F)F)c1)C(=O)O` ; retrieve measured Activity.
Result string: 64

Query string: Give the measured Activity of `CC(C)(CC(=O)O)c1ccc(F)cc1` .
Result string: 57

Query string: Any idea what Activity was measured for `O=C(O)c1cnc(OCC(F)(F)F)cn1` ?
Result string: 49

Query string: I am curious: what Activity value has been reported for `CC(C)(Cc1ccc(C(F)(F)F)cc1)C(=O)O` ?
Result string: 55

Query string: What does the data say about its Activity? Entry: Cc1ccc2[nH]cc(C(C(=O)O)C(F)(F)F)c2c1 (configuration not stated)
Result string: 48
